Listed next: entries and their corresponding IC50.
# MEASURED TARGET: NOX (NADPH oxidase) (Homo sapiens)
# Construct: endogenous in cells; host or cells: HL-60 cells differentiated with 1% DMSO, used as a sonicated homogenate supernatant (A1) or as viable cells (A2)
# Sequence (P04839 2-570 limits assumed): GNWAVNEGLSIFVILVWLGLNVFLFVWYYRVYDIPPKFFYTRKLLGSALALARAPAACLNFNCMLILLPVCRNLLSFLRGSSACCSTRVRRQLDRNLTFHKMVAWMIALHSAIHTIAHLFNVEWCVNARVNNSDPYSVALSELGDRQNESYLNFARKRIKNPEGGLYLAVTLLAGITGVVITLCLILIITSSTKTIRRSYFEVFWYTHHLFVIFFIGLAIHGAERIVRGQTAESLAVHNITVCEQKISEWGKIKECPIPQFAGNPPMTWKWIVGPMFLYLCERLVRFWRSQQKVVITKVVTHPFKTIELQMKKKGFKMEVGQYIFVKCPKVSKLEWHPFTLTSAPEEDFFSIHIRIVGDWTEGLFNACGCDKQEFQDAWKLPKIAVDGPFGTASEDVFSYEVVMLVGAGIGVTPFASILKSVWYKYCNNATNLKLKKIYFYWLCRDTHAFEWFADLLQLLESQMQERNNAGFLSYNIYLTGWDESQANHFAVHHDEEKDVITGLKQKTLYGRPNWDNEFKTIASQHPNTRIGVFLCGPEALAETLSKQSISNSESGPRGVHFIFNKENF
# Sequence (P13498 2-195 partner limits assumed): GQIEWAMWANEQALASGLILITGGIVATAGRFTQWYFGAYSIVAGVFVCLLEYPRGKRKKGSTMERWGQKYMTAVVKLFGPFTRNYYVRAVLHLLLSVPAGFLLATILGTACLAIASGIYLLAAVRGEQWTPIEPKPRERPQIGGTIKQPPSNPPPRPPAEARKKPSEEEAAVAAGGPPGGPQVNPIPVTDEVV
# TEST METHOD NOTES: NOX activity measurement in a cell-free system using a homogenate of differentiated HL-60 cells (NADPH consumption, fluorometry)
# Assay type: biochemical
# EXPERIMENTAL PARAMETERS: Example 4; cell-free system using a homogenate of differentiated HL-60 cells; methoxyflavonoid comparison; read-out: IC50 (μM), NOX inhibitory activity
MEASURED PROPERTY: IC50

INSERT INTO assay_data (compound, value_observed) VALUES
  ('CC(=O)OC(C)(C)[C@@H]1Cc2c(ccc3ccc(=O)oc23)O1', '19 µM'),
  ('COc1cc(O)c(C(=O)/C=C/c2ccccc2)c(O)c1 [2′,6′-Dihydroxy-4′-methoxychalcone]', '> 100 µM'),
  ('COc1ccc(C(=O)/C=C/c2ccccc2)cc1', '> 100 µM'),
  ('CC(=O)c1cc2ccccc2oc1=O', '> 100 µM'),
  ('COc1cc2ccc(=O)oc2c(C(C)=O)c1OC', '> 100 µM'),
  ('COc1cc(C)c2c(=O)c(-c3ccccc3)coc2c1', '> 100 µM'),
  ('CC(=O)c1c(O)ccc2ccc(=O)oc12 [8-Acetyl-7-hydroxycoumarin]', '> 100 µM'),
  ('COc1cc(OC)c2c(=O)cc(-c3ccc(OC)c(OC)c3)oc2c1', '8 µM'),
  ('COc1ccc(-c2oc3cc(O)cc(O)c3c(=O)c2OC)cc1O [5,7,3′-Trihydroxy-3,4′-dimethoxyflavone]', '~100 µM'),
  ('COc1ccc2c(=O)c(OC)c(-c3ccc(OC)c(OC)c3)oc2c1', '> 100 µM');
